System: SK-MEL-2 melanoma
Procedure summary: NCI tumour cell line growth inhibition, 48 h
Please respond with reported TGI for every item in the list.

## Task # value lookup — system SK-MEL-2 melanoma, readout TGI, item CC(=O)[C@]1(O)Cc2c(O)c3c(c(O)c2[C@@H](OC2CC(N)C(O)C(C)O2)C1)C(=O)c1c(OCc2ccccc2)cccc1C3=O (some centres undefined)
## Result 58.4 µM

## Task # value lookup — system SK-MEL-2 melanoma, readout TGI, item Clc1ccc2c(NCCCN3CCN(c4nc(N5CCOCC5)nc5ccccc45)CC3)ccnc2c1
## Result 3.49 µM

## Task # value lookup — system SK-MEL-2 melanoma, readout TGI, item CN(/N=C\c1ccc2ccccc2c1)C1=NCCCN1
## Result 35 µM

## Task # value lookup — system SK-MEL-2 melanoma, readout TGI, item COCC1N=C(c2cc(OC)c(OC)c(OC)c2-c2cc3c(cc2[C@H](C)O)OCO3)O[C@H]1c1ccccc1 (some centres undefined)
## Result > 100 µM

## Task # value lookup — system SK-MEL-2 melanoma, readout TGI, item CCc1cc2c(c3c1CCCC3=O)CC1(C2)Cc2cc(CC)c3c(c2C1)C(=O)CCC3
## Result > 100 µM

## Task # value lookup — system SK-MEL-2 melanoma, readout TGI, item Nc1nc(=S)[nH]c(C(=O)Nc2nccs2)c1-c1ccccc1
## Result > 100 µM

## Task # value lookup — system SK-MEL-2 melanoma, readout TGI, item CCCCCCCc1ccc(-c2nnc(N=Nc3ccc(OCCCCC)cc3)s2)s1
## Result > 100 µM

## Task # value lookup — system SK-MEL-2 melanoma, readout TGI, item COc1ccc(C23OCC(Cc4cc(OC)c(OC)cc42)C3CO)cc1OC (centres undefined)
## Result > 100 µM

## Task # value lookup — system SK-MEL-2 melanoma, readout TGI, item CN(C)C(=O)Oc1ccc(C(=S)Nc2ccccc2)cc1
## Result > 100 µM
